Catalogue of MI % values
tested on: BxPC-3; experiment: Solid tumour and haematological malignancy assay (CellTiterGlo); assay type: cell-based; conditions: 72 hr
Just the number in %, nothing appended.

Nc1ncnc2c1ncn2[C@@H]1O[C@H](COP(=O)(NCC(=O)OCc2ccccc2)Oc2ccccc2)C[C@H]1O (some centres unmarked) :: 99
CCOC(=O)CCc1ccccc1OP(=O)(N[C@@H](C)C(=O)OCc1ccccc1)OC[C@@H]1C[C@@H](O)[C@H](n2cnc3c(N)ncnc32)O1 (some centres unmarked) :: 78
C[C@H](NP(=O)(OC[C@@H]1C[C@@H](O)[C@H](n2cnc3c(N)ncnc32)O1)Oc1cccc2ccccc12)C(=O)OCc1ccccc1 (some centres unmarked) :: 90
COC(=O)C(C)(C)NP(=O)(OC[C@@H]1C[C@@H](O)[C@H](n2cnc3c(N)ncnc32)O1)Oc1cccc2ccccc12 (some centres unmarked) :: 71

### Prompt Quick check: MI % of Nc1ncnc2c1ncn2[C@@H]1O[C@H](CO)C[C@H]1O [Cordycepin, 3′-deoxyadenosine, reference compound] ?
### Response 22

Reference for the values: patent US12054510B2
